Hello, the source for this data is ChEMBL document CHEMBL4689842, in case you need it.

In this section we review reported Population Hoechst High Intensity Objects (%) values for a set of compounds.
tested on: HEK-293T; assay: Multiplex assay against HEK293T; assay type: toxicity, cell-based; conditions: human, 24 h, 10 µM, compound concentration 10 uM, replicate 1

For orientation, consider the following solved cases.
COc1ccc(S(=O)(=O)N(CCO)c2ccccc2CN(C)C/C=C/c2ccc(Cl)cc2)cc1.O=P(O)(O)O; 6%
O=C1N/C(=N/c2ccccc2F)S/C1=C\c1ccc(C(=O)O)cc1; 16%
Cn1nc(C(F)(F)F)cc1-c1cnc(N2CCc3cc(S(=O)(=O)Nc4c(F)cc(Cl)cc4F)cc(N4CCCC4=O)c32)nc1 [TP-020]; 5%
Cc1cc(C)c(S(=O)(=O)N(Cc2ccc(-c3cccc(S(C)(=O)=O)c3)cc2)Cc2ccc(C(F)(F)F)o2)c(C)c1; 15%
CCOC(=O)c1c(C)[nH]c2ccc3c(c12)CN1CCc2cc(OC)ccc2C1O3 (configuration not stated); 22%
COc1cccc2cc(-c3nc([C@H]4CC[C@H](C(=O)O)CC4)n4ncnc(N)c34)[nH]c12 [OSI-027]; 14%
O=C(Nc1cccnn1)N1CCC(=Cc2cccc(Oc3ccc(C(F)(F)F)cn3)c2)CC1; 4%
O=C(Cc1ccc(-c2ccc(OCCN3CCOCC3)cc2)cn1)NCc1ccccc1 [TIRBANIBULIN]; 17%
CCc1cccc(CC)c1NC(=O)c1nn(C)c2c1CCc1cnc(Nc3ccc(N4CCN(C)CC4)cc3OC)nc1-2; 8%
Cl.Oc1ccc2c3c1O[C@H]1c4[nH]c5c(c4C[C@@]4(O)[C@@H](C2)N(CC2CC2)CC[C@]314)C[C@@]1(O)[C@H]2Cc3ccc(O)c4c3[C@@]1(CCN2CC1CC1)[C@H]5O4; 7%

Req: Can you share its Population Hoechst High Intensity Objects (%)? I mean this compound: "O=C(Nc1ccc(Cl)cc1)Nc1cccc(-c2cccc(N3CCCC3)n2)c1"
Resp: 45%

Req: How about "NC(=O)c1cccc(-c2cc(Nc3ccc(OC(F)(F)F)cc3)ncn2)c1" ?
Resp: 11%

Req: How about "Cc1ccc(C(=O)Nc2cccc(C(F)(F)F)c2)cc1Nc1nc(-c2cccnc2)nc2c1cnn2C" ?
Resp: 22%

###

tested on: HEK-293T; assay: Multiplex assay against HEK293T; format: toxicity, cell-based; details: human, 24 h, 1 µM, compound concentration 1 uM, replicate 2
Where Population Apoptotic (%) equals or exceeds 6%, the correct label is Y; where it does not, the label is N.

CN(C)C(=O)C(CCN1CCC(O)(c2ccc(Cl)cc2)CC1)(c1ccccc1)c1ccccc1.Cl [LOPERAMIDE HYDROCHLORIDE]; Y
O=C(Cc1ccc(-c2ccc(OCCN3CCOCC3)cc2)cn1)NCc1ccccc1; Y
O=C(Nc1ccc(Cl)cc1)Nc1cccc(-c2cccc(N3CCCC3)n2)c1; Y
Cl.O=C(c1ccc(Nc2nccc(-c3cc4ccccc4s3)n2)cc1)N1CCC(N2CCCC2)CC1; N
O=C(Nc1ccc(-n2nc(-c3cccnc3)cc2C(F)(F)F)cn1)c1ccc(-c2ccccc2)c(F)c1; Y
CCn1c(=O)c(-c2ccc(-c3cncs3)cc2Cl)cc2cnc(Nc3ccc(N4CCN(C)CC4)cc3)nc21; Y

Let us examine a further case.
Req: Could you verify whether the entry "CN1CCN(C(=O)C(C)(C)c2ccc(C(=O)Nc3cn4cc(-c5cc(C(C)(C)C)cc(C(C)(C)C)c5)ccc4n3)cc2)CC1" shows Population Apoptotic (%) of no less than 6%?
Resp: N

###

In this section we review reported Population Hoechst High Intensity Objects (%) values for a set of compounds.
test system: HEK-293T; assay: Multiplex assay against HEK293T; assay type: toxicity, cell-based; settings: human, 48 h, 10 µM, compound concentration 10 uM, replicate 2
Answer with a number only, understood to be in %.

For orientation, consider the following solved cases.
O=C(Nc1ccc(Cl)cc1)Nc1cccc(-c2cccc(N3CCCC3)n2)c1; 26
O=C(Nc1ccc(-c2ccnc(Nc3ccc(N4CCOCC4)cc3)n2)cc1)[C@@H]1CCCN1; 5
COCC(=O)NC/C=C/c1ccc2ncnc(Nc3ccc(Oc4ccc(C)nc4)c(C)c3)c2c1; 5

Req: Can you share its Population Hoechst High Intensity Objects (%)? I mean this compound: "CCCn1c(=O)c2[nH]c(-c3cnn(Cc4cccc(C(F)(F)F)c4)c3)nc2n(CC)c1=O"
Resp: 4

###

tested on: U2OS; assay: Multiplex assay against U2OS; format: toxicity, cell-based; conditions: human, 24 h, 1 µM, compound concentration 1 uM, replicate 1
readout_label: Population Tubulin-Different-Phenotype (%)
Answer with a number only, understood to be in %.

For orientation, consider the following solved cases.
COc1cc(N2CCN(C)CC2)ccc1Nc1ncc2c(n1)N(C)c1ccccc1C(=O)N2C; 8
CCc1cccc(CC)c1NC(=O)c1nn(C)c2c1CCc1cnc(Nc3ccc(C(=O)NC4CCN(C)CC4)cc3OC(F)(F)F)nc1-2; 11

Req: Can you share its Population Tubulin-Different-Phenotype (%)? I mean this molecule: "CCNc1cc(N[C@H]2CC[C@H](O)CC2)nc(Nc2ccc3c(ccn3Cc3ccccc3)c2)n1"
Resp: 69

Req: How about CN(C)C(=O)C(CCN1CCC(O)(c2ccc(Cl)cc2)CC1)(c1ccccc1)c1ccccc1.Cl [LOPERAMIDE HYDROCHLORIDE] ?
Resp: 75

Req: How about CN1C2CCC1CC(OC(c1ccc(F)cc1)c1ccc(F)cc1)C2.Cl (stereo not drawn) ?
Resp: 3

###

system: HEK-293T; test: Multiplex assay against HEK293T; format: toxicity, cell-based; conditions: human, 24 h, 10 µM, compound concentration 10 uM, replicate 2;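 as to Population Tubulin-Different-Phenotype (%): share of the cells with healthy nuclei that show this phenotype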
readout_label: Population Tubulin-Different-Phenotype (%)
Dear colleague, please send the value followed by its unit.

Req: Hi! What's the reported Population Tubulin-Different-Phenotype (%) for "Cn1nc(C(F)(F)F)cc1-c1cnc(N2CCc3cc(S(=O)(=O)Nc4c(F)cc(Cl)cc4F)cc(N4CCCC4=O)c32)nc1" on HEK-293T?
Resp: 5%

Req: How about "CNc1cc(Oc2cc(C(=O)Nc3cc(N4CCN(C)CC4)cc(C(F)(F)F)c3)ccc2C)ncn1" ?
Resp: 75%

Req: How about "COc1cccc2cc(-c3nc([C@H]4CC[C@H](C(=O)O)CC4)n4ncnc(N)c34)[nH]c12" ?
Resp: 10%

Req: How about "CCN1CCN(c2ccc(Nc3cc(N(C)C(=O)Nc4c(Cl)c(OC)cc(OC)c4Cl)ncn3)cc2)CC1" ?
Resp: 26%

Req: How about "CCN1CCN(Cc2ccc(Nc3ncc(F)c(-c4cc(F)c5nc(C)n(C(C)C)c5c4)n3)nc2)CC1.CS(=O)(=O)O" ?
Resp: 93%

Req: How about "O=C(Cc1ccc(-c2ccc(OCCN3CCOCC3)cc2)cn1)NCc1ccccc1" ?
Resp: 18%

Req: How about "O=C1N/C(=N/c2ccccc2F)S/C1=C\c1ccc(C(=O)O)cc1" ?
Resp: 24%

Req: How about "CCn1cc(-c2ccnc3[nH]c(-c4cccc(CN(C)C)c4)cc23)c(-c2ccc(NC(=O)N(C)C)cc2)n1" ?
Resp: 98%

Req: How about "CN1CCN(C(=O)C(C)(C)c2ccc(C(=O)Nc3cn4cc(-c5cc(C(C)(C)C)cc(C(C)(C)C)c5)ccc4n3)cc2)CC1" ?
Resp: 82%

Req: How about "COC(=N)c1nc2ccc3ncnc(Nc4ccc(OC)cc4F)c3c2s1" ?
Resp: 5%

Req: How about "Cc1cc(C)c(S(=O)(=O)N(Cc2ccc(-c3cccc(S(C)(=O)=O)c3)cc2)Cc2ccc(C(F)(F)F)o2)c(C)c1" ?
Resp: 24%

###

In this section we review reported Population Mitochondria Different-Phenotype (%) values for a set of compounds.
test system: U2OS; assay: Multiplex assay against U2OS; assay type: toxicity, cell-based; settings: human, 48 h, 1 µM, compound concentration 1 uM, replicate 2
Answer with a number only, understood to be in %.

For orientation, consider the following solved cases.
CN(C)C(=O)C(CCN1CCC(O)(c2ccc(Cl)cc2)CC1)(c1ccccc1)c1ccccc1.Cl [LOPERAMIDE HYDROCHLORIDE]; 65
Cc1ccc(C(=O)Nc2cccc(C(F)(F)F)c2)cc1Nc1nc(-c2cccnc2)nc2c1cnn2C; 29

Req: Can you share its Population Mitochondria Different-Phenotype (%)? I mean this compound: "O=C(Nc1ccc(-c2ccnc(Nc3ccc(N4CCOCC4)cc3)n2)cc1)[C@@H]1CCCN1"
Resp: 12

Req: How about "CCn1c(=O)c(-c2ccc(-c3cncs3)cc2Cl)cc2cnc(Nc3ccc(N4CCN(C)CC4)cc3)nc21" ?
Resp: 20

Req: How about "CCN1CCN(Cc2ccc(Nc3ncc(F)c(-c4cc(F)c5nc(C)n(C(C)C)c5c4)n3)nc2)CC1.CS(=O)(=O)O" ?
Resp: 71

Req: How about "O=C1N/C(=N/c2ccccc2F)S/C1=C\c1ccc(C(=O)O)cc1" ?
Resp: 16

Req: How about "Cc1cc(C)c(S(=O)(=O)N(Cc2ccc(-c3cccc(S(C)(=O)=O)c3)cc2)Cc2ccc(C(F)(F)F)o2)c(C)c1" ?
Resp: 25

Req: How about "O=C(Nc1ccc(Cl)cc1)Nc1cccc(-c2cccc(N3CCCC3)n2)c1" ?
Resp: 9
